- system: EGFR L858R/T790M (LR/TM) (Homo sapiens, UniProt P00533, L858R/T790M)
- Sequence (P00533 25-1210 T790M/L858R): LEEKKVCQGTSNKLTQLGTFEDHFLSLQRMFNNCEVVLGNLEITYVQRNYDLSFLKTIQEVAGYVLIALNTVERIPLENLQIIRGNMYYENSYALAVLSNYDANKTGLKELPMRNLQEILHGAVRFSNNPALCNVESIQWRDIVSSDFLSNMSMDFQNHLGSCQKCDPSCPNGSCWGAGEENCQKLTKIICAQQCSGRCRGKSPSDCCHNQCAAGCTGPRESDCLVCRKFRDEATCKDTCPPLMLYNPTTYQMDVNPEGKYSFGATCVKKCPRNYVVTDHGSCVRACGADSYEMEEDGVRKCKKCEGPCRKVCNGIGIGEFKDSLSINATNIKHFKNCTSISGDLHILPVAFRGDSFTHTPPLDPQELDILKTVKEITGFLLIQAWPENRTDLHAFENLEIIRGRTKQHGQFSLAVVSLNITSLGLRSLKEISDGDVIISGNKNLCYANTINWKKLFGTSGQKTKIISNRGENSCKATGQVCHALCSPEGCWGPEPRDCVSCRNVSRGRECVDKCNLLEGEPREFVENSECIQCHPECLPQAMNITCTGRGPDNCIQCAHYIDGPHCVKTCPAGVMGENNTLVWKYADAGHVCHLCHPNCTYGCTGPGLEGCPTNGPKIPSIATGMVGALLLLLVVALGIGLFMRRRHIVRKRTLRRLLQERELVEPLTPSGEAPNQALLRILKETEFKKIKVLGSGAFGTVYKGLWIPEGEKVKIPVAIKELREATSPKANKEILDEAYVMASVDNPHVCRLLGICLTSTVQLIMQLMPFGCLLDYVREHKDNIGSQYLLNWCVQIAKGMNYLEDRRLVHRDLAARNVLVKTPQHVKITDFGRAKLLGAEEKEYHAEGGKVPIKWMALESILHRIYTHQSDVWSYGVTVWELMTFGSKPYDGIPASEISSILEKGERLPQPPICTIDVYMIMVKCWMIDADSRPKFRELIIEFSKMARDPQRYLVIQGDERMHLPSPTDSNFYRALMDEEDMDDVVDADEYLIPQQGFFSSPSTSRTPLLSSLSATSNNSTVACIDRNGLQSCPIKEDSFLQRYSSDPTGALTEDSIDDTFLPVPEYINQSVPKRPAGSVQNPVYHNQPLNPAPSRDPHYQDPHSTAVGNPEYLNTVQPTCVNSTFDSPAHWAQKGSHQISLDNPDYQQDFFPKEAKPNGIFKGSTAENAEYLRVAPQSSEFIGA
- procedureSummary: ELISA kinase activity detection, EGFR double mutant
- Type: biochemical
- experimentalSetup: ELISA-based EGFR-TK assay, ATP 5 μM, mean ± SD
experimentalReadout: IC50 (nM)

1: COc1cc2ncnc(Nc3ccc(NC(=O)C(c4ccccc4)N4Cc5ccccc5C4=O)cc3F)c2cc1OCN1CCN(C)CC1 (stereo not shown) [Example 24]
2: COc1cc2c(Nc3cc(NC(=O)C(c4ccccc4)N4Cc5ccccc5C4=O)ccc3F)ncnc2cc1OCC1CCN(C)CC1 (stereo not shown) [Example 18]
Kindly compare 1 with 2 and tell me which has the lower IC50 figure. Answer with the label corresponding to your selection.
2
(2: 3.2 nM, 1: 4.8 nM)

###

- system: EGFR(WT) (Homo sapiens, UniProt P00533)
- Sequence (P00533 25-1210): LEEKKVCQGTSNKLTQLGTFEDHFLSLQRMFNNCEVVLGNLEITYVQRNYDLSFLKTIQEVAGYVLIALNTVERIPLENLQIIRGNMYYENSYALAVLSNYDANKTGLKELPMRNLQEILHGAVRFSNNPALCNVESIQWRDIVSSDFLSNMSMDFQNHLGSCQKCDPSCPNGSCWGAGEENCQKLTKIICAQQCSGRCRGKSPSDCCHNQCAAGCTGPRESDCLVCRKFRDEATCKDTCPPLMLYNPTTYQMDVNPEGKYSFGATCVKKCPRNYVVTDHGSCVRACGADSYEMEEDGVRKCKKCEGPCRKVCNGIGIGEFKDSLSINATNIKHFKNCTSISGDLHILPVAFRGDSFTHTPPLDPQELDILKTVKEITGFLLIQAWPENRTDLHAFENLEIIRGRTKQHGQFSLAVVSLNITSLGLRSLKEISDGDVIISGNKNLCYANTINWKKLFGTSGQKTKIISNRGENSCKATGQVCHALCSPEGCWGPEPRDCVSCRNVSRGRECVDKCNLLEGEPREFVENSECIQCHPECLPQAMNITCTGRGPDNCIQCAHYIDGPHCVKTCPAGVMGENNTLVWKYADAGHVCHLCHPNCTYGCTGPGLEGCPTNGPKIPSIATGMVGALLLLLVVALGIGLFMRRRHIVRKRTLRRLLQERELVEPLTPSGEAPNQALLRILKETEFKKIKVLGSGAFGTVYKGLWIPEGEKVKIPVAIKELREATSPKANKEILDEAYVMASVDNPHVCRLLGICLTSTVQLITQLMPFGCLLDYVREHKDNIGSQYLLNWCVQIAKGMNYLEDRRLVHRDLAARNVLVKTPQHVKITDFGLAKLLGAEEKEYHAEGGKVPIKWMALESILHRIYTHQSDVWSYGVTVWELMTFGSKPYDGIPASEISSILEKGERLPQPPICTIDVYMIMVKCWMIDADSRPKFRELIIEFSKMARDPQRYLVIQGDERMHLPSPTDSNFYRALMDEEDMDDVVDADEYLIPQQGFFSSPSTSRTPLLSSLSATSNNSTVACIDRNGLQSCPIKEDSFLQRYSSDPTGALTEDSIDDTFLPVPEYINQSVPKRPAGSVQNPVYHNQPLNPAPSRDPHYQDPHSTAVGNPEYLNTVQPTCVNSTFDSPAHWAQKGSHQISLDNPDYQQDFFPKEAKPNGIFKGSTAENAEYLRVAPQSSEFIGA
- procedureSummary: ELISA kinase activity detection, EGFR(WT)
- Format: biochemical
- experimentalSetup: ELISA-based EGFR-TK assay, ATP 5 μM; mean ± SD of at least two determinations
experimentalReadout: IC50 (nM)

a: COc1cc2c(Nc3ccc(NC(=O)C(C)c4ccccc4)cc3F)ncnc2cc1OCC1CCN(C)CC1 (centres unmarked)
b: COc1cc2c(Nc3ccc(NC(=O)C(c4cccc(F)c4)N4Cc5ccccc5C4=O)cc3F)ncnc2cc1OCC1CCN(C)CC1 (centres unmarked)
Lab note: check whether a or b has the lower measured IC50. Bench note: the answer is the label of the chosen record.
b

1: COc1cc2ncnc(Nc3ccc(NC(=O)C(c4ccccc4)N4Cc5ccccc5C4=O)cc3F)c2cc1OCCCN1CCOCC1 (centres unmarked)
2: CN1CCC(COc2ccc3c(Nc4ccccc4P(C)(C)=O)ncnc3c2)CC1
Which entry has a larger number for IC50, 1 or 2 ? Kindly state the label of the option you pick.
2

I: COCCOc1cc2ncnc(Nc3ccc(NC(=O)C(c4ccccc4)N4Cc5ccccc5C4=O)cc3F)c2cc1OCCOC (centres unmarked)
II: COc1cc2c(Nc3ccc(NC(=O)Cc4ccccc4)cc3F)ncnc2cc1OCC1CCN(C)CC1
Please choose the item with the lower IC50 value from this pair: I and II // output: label of the selected item
I

1: COc1cc2ncnc(Nc3ccc(NC(=O)C(c4ccccc4)N4Cc5ccccc5C4=O)cc3F)c2cc1OCN1CCN(C)CC1 (centres unmarked)
2: COc1cc2ncnc(Nc3cc(NC(=O)c4ccccc4)ccc3F)c2cc1OC
3: COc1cc2c(Nc3cc(NC(=O)c4ccccc4)ccc3F)ncnc2cc1OCC1CCN(C)CC1
Order the records, beginning with the lowest IC50 and ending with the highest. Form entry: ranked labels (order as requested).
1, 3, 2

###

- system: EGFR L858R/T790M (LR/TM) (Homo sapiens, UniProt P00533, L858R/T790M)
- procedureSummary: ELISA kinase activity detection, EGFR double mutant
- Type: biochemical
- experimentalSetup: ELISA-based EGFR-TK assay, ATP 5 μM, mean ± SD
experimentalReadout: IC50 (nM)

compound=COc1cc2c(Nc3ccc(NC(=O)C(c4ccccc4)c4ccccc4)cc3F)ncnc2cc1OCC1CCN(C)CC1 system="EGFR L858R/T790M (LR/TM) (Homo sapiens, UniProt P00533, L858R/T790M)" quantityunit=nM quantitativeresult=1000
compound=COc1cc2c(Nc3ccc(OCc4ccccc4)cc3)ncnc2cc1OCC1CCN(C)CC1 system="EGFR L858R/T790M (LR/TM) (Homo sapiens, UniProt P00533, L858R/T790M)" quantityunit=nM quantitativeresult=4630
compound="COc1cc2c(Nc3ccc(NC(=O)C(c4cccc(F)c4)N4Cc5ccccc5C4=O)cc3F)ncnc2cc1OCC1CCN(C)CC1 (stereo not shown)" system="EGFR L858R/T790M (LR/TM) (Homo sapiens, UniProt P00533, L858R/T790M)" quantityunit=nM quantitativeresult=6.7

I: COc1cc2c(Nc3ccc(NC(=O)C(c4ccccc4)N4Cc5ccccc5C4=O)cc3F)ncnc2cc1OCC1CCN(C)CC1 (stereo not shown)
II: COc1cc2ncnc(Nc3ccc(NC(=O)C(c4ccccc4)N4Cc5ccccc5C4=O)cc3F)c2cc1OC (stereo not shown)
Form: Entry with minimum IC50 (choose one): I / II Indicate which entry you chose by stating its label.
I
